# System: Tov112D
# test-protocol: Primary qHTS to identify gynecologic anti-cancer compounds using libraries of approved drugs and bioactive compounds (AID 1345084); also: % is scaled to controls: 0 for no effect and ±100 for the full control effect; nearly all actives have a fitted effect of over 55% in size
# assay-setup: Gynecologic cancer cell panel viability, ATPlite luminescence, 48 h; series mostly up to 57.5 µM
Results filed as inconclusive are left out. Activity calls are given as the source filed them. Calls follow the shape of the dose curve; as a rule, active = well fitted cell-killing curve with a large enough effect; inconclusive = small, poorly fitted or top-dose-only effect, or effect the other way; inactive = flat fitted curve, though single readings scatter.
assay-endpoint: activity change, negative = cytotoxicity

>>> reported_result("C[C@@H]1O[C@@H](O[C@H]2[C@H](OC(=O)[C@]34CCC(C)(C)C[C@H]3C3=CCC5[C@@]6(C)C[C@H](O)[C@H](O[C@@H]7O[C@H](C(=O)O)[C@@H](O)[C@H](O)[C@H]7O)[C@@](C)(CO)C6[C@H](O)C[C@@]5(C)[C@]3(C)C[C@H]4O)O[C@@H](CO)[C@@H]2O)[C@H](O)[C@H](O)[C@H]1O[C@@H]1OC[C@@H](O)[C@H](O[C@H]2OC[C@](O)(CO)[C@H]2O)[C@H]1O (some centres not stated)")
"-1.13% [at 6.55 µM] (inactive)"
>>> reported_result("CC(CCC1(O)OC2CC3C4CC=C5CC(O[C@@H]6O[C@H](CO)[C@@H](O[C@@H]7O[C@@H](C)[C@H](O)[C@@H](O)[C@H]7O)[C@H](O)[C@H]6O[C@@H]6O[C@@H](C)[C@H](O)[C@@H](O)[C@H]6O)CCC5(C)C4CCC3(C)C2C1C)CO[C@@H]1O[C@H](CO)[C@@H](O)[C@H](O)[C@H]1O (some centres not stated)")
"-1.44% [at 11.6 µM] (inactive)"

----------
# System: Tov112D
# test-protocol: Primary qHTS to identify gynecologic anti-cancer compounds using libraries of approved drugs and bioactive compounds (AID 1345084); also: % is scaled to controls: 0 for no effect and ±100 for the full control effect; nearly all actives have a fitted effect of over 55% in size
# assay-setup: Gynecologic cancer cell panel viability, ATPlite luminescence, 48 h; series mostly up to 57.5 µM
Results filed as inconclusive are left out. Active and inactive are the calls of the source. The call rests on the fitted dose curve; in most records, active means well fitted cell-killing curve with a large enough effect; inconclusive means small, poorly fitted or top-dose-only effect, or effect the other way; inactive means flat fitted curve, though single readings scatter.
assay-endpoint: activity change, negative = cytotoxicity

>>> reported_result("C[C@H]1CC[C@@]2(OC1)O[C@H]1CC3[C@@H]4CC[C@@H]5C[C@@H](O[C@@H]6O[C@H](CO)[C@@H](O[C@@H]7O[C@H](CO[C@@H]8OC[C@@H](O)[C@H](O)[C@H]8O)[C@@H](O[C@@H]8O[C@H](CO)[C@H](O)[C@H](O)[C@H]8O)[C@H](O)[C@H]7O)[C@H](O)[C@H]6O)CC[C@]5(C)C4CC[C@]3(C)[C@H]1[C@@H]2C (stereo partly drawn)")
"3.54% [at 11.6 µM] (inactive)"
>>> reported_result("C[C@H]1CC[C@@]2(OC1)O[C@H]1CC3[C@@H]4CC[C@@H]5C[C@@H](O[C@@H]6O[C@H](CO)[C@@H](O[C@@H]7O[C@@H](C)[C@H](O)[C@@H](O)[C@H]7O)[C@H](O)[C@H]6O[C@@H]6O[C@H](CO)[C@@H](O)[C@H](O)[C@H]6O)CC[C@]5(C)C4CC[C@]3(C)[C@H]1[C@@H]2C (stereo partly drawn)")
"-1.68% [at 11.6 µM] (inactive)"
>>> reported_result("CC1(C)CC[C@]23CO[C@@]4(CCC5[C@@]6(C)CC[C@H](O[C@@H]7OC[C@H](O[C@@H]8O[C@H](CO)[C@@H](O)[C@H](O)[C@H]8O[C@@H]8OC[C@@H](O)[C@H](O)[C@H]8O)[C@H](O)[C@H]7O)[C@@](C)(CO)C6CC[C@@]5(C)[C@]4(C)CC2=O)[C@@H]3C1 (stereo partly drawn)")
"1.26% [at 11.6 µM] (inactive)"
>>> reported_result("C[C@@H]1O[C@@H](O[C@H]2[C@@H](OC(=O)[C@]34CCC(C)(C)CC3C3=CCC5[C@@]6(C)C[C@H](O)[C@H](O[C@@H]7O[C@H](CO)[C@@H](O)[C@H](O)[C@H]7O[C@@H]7OC[C@@H](O)[C@H](O)[C@H]7O)[C@@](C)(C(=O)O)C6CC[C@@]5(C)[C@]3(C)CC4)OC[C@H](O)[C@@H]2O)[C@H](O)[C@H](O)[C@H]1O[C@@H]1OC[C@@H](O)[C@H](O)[C@H]1O (stereo partly drawn)")
"-12.7% [at 6.55 µM] (inactive)"
>>> reported_result("COc1c(C)cc(NC(=O)c2nn(Cc3ccc(F)cc3)c3c2CN(C(=O)c2ccc[nH]2)C[C@]3(C)C(N)=O)cc1C")
"9.54% [at 11.6 µM] (inactive)"
>>> reported_result("CC1(C)CCC2(C(=O)OC3OC(COC4OC(CO)C(O)C(O)C4O)C(O)C(O)C3O)CCC3(C)C(=CCC4C5(C)CCC(OC6OCC(O)C(O)C6O)C(C)(C)C5CCC43C)C2C1O (stereo not drawn)")
"-9.09% [at 11.6 µM] (inactive)"
>>> reported_result("CC(CCC1(O)OC2CC3C4CC=C5C[C@@H](O[C@@H]6O[C@H](CO)[C@@H](O[C@@H]7O[C@@H](C)[C@H](O)[C@@H](O)[C@H]7O)[C@H](O)[C@H]6O[C@@H]6O[C@@H](C)[C@H](O)[C@@H](O)[C@H]6O)CC[C@]5(C)C4CC[C@]3(C)[C@@]2(O)[C@@H]1C)CO[C@@H]1O[C@H](CO)[C@@H](O)[C@H](O)[C@H]1O (stereo partly drawn)")
"-0.117% [at 11.6 µM] (inactive)"
>>> reported_result("CC(=O)O[C@@H]1C[C@]2(C)[C@@]3(CCC4[C@@]5(C)CC[C@H](O[C@@H]6O[C@H](C(=O)O)[C@@H](O)[C@H](OC7OC(CO)C(O)C(O)[C@H]7O[C@@H]7O[C@@H](C)[C@H](O)[C@@H](O)[C@H]7O[C@@H]7OC[C@](O)(CO)[C@H]7O)[C@H]6OC6OC(CO)C(O)C(O)C6O)C(C)(C)C5CC[C@]42C)OC[C@@]12CCC(C)(C)CC23 (stereo partly drawn)")
"-4.27% [at 6.55 µM] (inactive)"

----------
# test-protocol: Primary qHTS for small molecule stabilizers of the endoplasmic reticulum resident proteome: Secreted ER Calcium Modulated Protein (SERCaMP) assay (AID 1508630); also: % is scaled to controls: 0 for no effect and ±100 for the full control effect
# assay-setup: SH-SY5Y GLuc-SERCaMP (Gaussia luciferase released on ER calcium loss) secretion, thapsigargin, luminescence; series mostly up to 38.4 µM
Records with an inconclusive call do not appear. Activity calls are given as the source filed them. Calls come from the whole dose curve; as a rule, active = well fitted inhibition curve with a large enough effect; inconclusive = small, poorly fitted or top-dose-only effect; inactive = no such curve, though single readings can be large or run the other way.
assay-endpoint: outcome

>>> reported_result("O=S(=O)(c1ccccc1)N(CC(F)(F)F)c1ccc(C(O)(C(F)(F)F)C(F)(F)F)cc1")
"inactive"
>>> reported_result("CCc1ccccc1OC[C@@H](O)CN[C@H]1CCCc2ccccc21")
"inactive"
>>> reported_result("COc1cc(C[C@H]2C(=O)OC[C@@H]2Cc2ccc(OC)c(OC)c2)ccc1O")
"inactive"
>>> reported_result("CN(C)CCCn1cc(C2=C(c3c[nH]c4ccccc34)C(=O)NC2=O)c2ccccc21")
"inactive"

----------
# System: HeLa
# test-protocol: Primary qHTS to identify gynecologic anti-cancer compounds using libraries of approved drugs and bioactive compounds (AID 1345084); also: % is scaled to controls: 0 for no effect and ±100 for the full control effect; nearly all actives have a fitted effect of over 55% in size
# assay-setup: Gynecologic cancer cell panel viability, ATPlite luminescence, 48 h; series mostly up to 57.5 µM
# Description: National Center for Advancing Translational Sciences [NCATS] Assay Overview: Chemotherapeutic drug responses vary from cancer to cancer and from patient to patient. […] ATPlite is a luminescence based assay reliant on the conversion of a luciferase substrate to light in the presence of ATP. As a cytotoxic compound will suppress growth and decrease the number of cells, the concentration of ATP will decrease, and less light signal will be detected in the well. […]
Inconclusive results are not listed. Calls of active or inactive are those of the source. The call rests on the fitted dose curve; in most records, active means well fitted cell-killing curve with a large enough effect; inconclusive means small, poorly fitted or top-dose-only effect, or effect the other way; inactive means flat fitted curve, though single readings scatter.
assay-endpoint: outcome

>>> reported_result("CC1=C2C[C@@]3(C)C(CCC[C@@H]3C)C(O)C2OC1=O (stereo not given in full)")
"inactive"
>>> reported_result("O=C(Nc1ccc(N(Cc2ccsc2)C(=O)Cn2nnc3ccccc32)cc1)C1CC1")
"inactive"
>>> reported_result("CC(=O)OC/C(=C/C(=O)O)CC[C@@H]1C(C=O)=CC[C@@H]2C(C)(C)CCC[C@@]12C")
"inactive"
>>> reported_result("CCN(CC)C(=O)C(c1ccccc1)N1CCN(c2ccc(NC(=O)c3ccccc3-c3cccnc3)cc2F)CC1 (stereo not given)")
"inactive"
>>> reported_result("C=CCCN1CCC2(CC1)CN(C(=O)c1c(F)cccc1F)c1ccc(Cl)cc12")
"inactive"
>>> reported_result("Cc1cn2c(n1)Cc1ccc(Cl)cc1C(c1ccc(N)cc1)=N2")
"inactive"
>>> reported_result("Cc1ccc(-c2ncc[nH]2)cc1NC(=O)c1ccc(OCc2ccccn2)cc1")
"inactive"
>>> reported_result("CN1CC2CN(c3ccc4oc5ccccc5c(=O)c4c3)CC2C1 (stereo not given)")
"inactive"
>>> reported_result("CCC/C=C\\C=C/CCc1cc(O)c([C@@H]2O[C@H](CO)[C@@H](O)[C@H](O)[C@H]2O)c(O)c1C(=O)OC")
"inactive"
>>> reported_result("O=c1nc(-c2ccccn2)sc2ccccc12")
"inactive"
>>> reported_result("O=C(NCc1cccs1)c1cc2nc(-c3ccco3)cc(C(F)(F)Cl)n2n1")
"inactive"
>>> reported_result("O=C(NCCCn1ccnc1)c1cc(-c2ccco2)on1")
"inactive"
>>> reported_result("CCCCC1CCN(CCCN2C(=O)CCc3ccccc32)CC1")
"inactive"
>>> reported_result("O=C(Nc1ccccc1Br)NC1CCN(c2ccc(C(F)(F)F)cn2)C1 (stereo not given)")
"inactive"
>>> reported_result("CCC(CC)Nc1nc(C)c(-c2ccc(OC(F)(F)F)cc2OC)nc1OC")
"inactive"
>>> reported_result("Cc1[nH]c(/C=C2\\C(=O)Nc3ccc(S(=O)(=O)N(C)c4cccc(Cl)c4)cc32)c(C)c1C(=O)N1CCN(C)CC1")
"inactive"
>>> reported_result("CCOc1nc(NC(=O)Cc2cc(OC)ccc2OC)cc(N)c1C#N")
"inactive"
>>> reported_result("CC(C)C[C@@H]1NC(=O)[C@@H]2C[C@@]34C[C@@H]5[C@@]6(C)CCCC(C)(C)C6CC[C@@]5(C)N(c5ccccc53)[C@H]4N2C1=O (stereo not given in full)")
"inactive"
>>> reported_result("COc1ccccc1C(=O)Nc1cc2c(cc1N1CCCC1)n(C)c(=O)n2C")
"inactive"
>>> reported_result("C=C1C(=O)OC2C3=C(C)C(=O)CC3C(C)CC(O)C12 (stereo not given)")
"inactive"
